procedure_details: Viability qHTS for spleen associated tyrosine kinase inhibitor (SYKi) drug resistant MV4-11 cells (AID 1963824); further: nearly all actives have a fitted effect of over 35% in size
assay_setup: SYKi-resistant MV4-11 viability, CellTiter-Glo, 72 h; series mostly up to 45 µM
Results filed as inconclusive are left out. The source made the active and inactive calls. The call rests on the fitted dose curve; in most records, active means well fitted cell-killing curve with a large enough effect; inconclusive means small, poorly fitted or top-dose-only effect, or effect the other way; inactive means no such curve, though single readings can be large or run the other way.
// classify into active, inactive

Known results for compounds:
compound: CCOc1cc2ncc(C#N)c(Nc3ccc(F)c(Cl)c3)c2cc1NC(=O)/C=C/CN(C)C
answer_label: active
//
compound: C[C@@H]1CC(=O)Nc2cccc(-c3ccc4c(c3)c(-c3cnn(C)c3)nn4C)c2N1
answer_label: active
//
compound: O=C(Nc1ncc(-c2cc(C(F)F)nn2-c2c(Cl)cccc2Cl)s1)C1CC1
answer_label: active

Which result was noted for this compound in the test: CCC1=C(C)C(=O)C(C)CC12C(=O)CCC2C(=O)O (configuration not stated)
inactive

Tell me the recorded outcome of this test for C=C(NC(=O)C(=C)NC(=O)c1csc(C2=NC3c4csc(n4)C4NC(=O)c5csc(n5)C(C(C)(O)C(C)O)NC(=O)C5CSC(=N5)/C(=C/C)NC(=O)C(C(C)O)NC(=O)c5csc(n5)C3(CC2)NC(=O)C(C)NC(=O)C(=C)NC(=O)C(C)NC(=O)C(C(C)CC)NC2C=Cc3c(C(C)O)cc(nc3C2O)C(=O)OC4C)n1)C(N)=O (configuration not stated) .
active

Just curious, what result did O=C1c2ccc(Nc3ccc(F)cc3F)cc2CCc2ccc(OCC(O)CO)cc21 (configuration not stated) get here?
active

What is the recorded call for this compound in the test? CCCCCCCCCCCCCCCC(=O)O[C@H]1[C@@H](O)[C@@H](O)[C@@H]([C@H](NC(=O)[C@@H]2C[C@@H](CCC)CN2C)[C@H](C)Cl)O[C@@H]1SC
active

Hello, I am checking results. What call was entered for O=C(O)c1ccccc1C(=O)Nc1ccc(S(=O)(=O)Nc2nccs2)cc1 ?
inactive

State the result this test recorded for Cc1cc(O)c2c(c1)C(=O)c1cccc(O)c1C2=O .
inactive

Please share the test call associated with CN(C)C(=O)C(=O)c1cn(C)c2cc(Cl)c(C(=O)N3CCC(Cc4ccc(F)cc4)CC3)cc12 .
active

Answer briefly: the call reported for COC(=O)C1=CO[C@@H](O[C@@H]2O[C@H](CO)[C@@H](O)[C@H](O)[C@H]2O)[C@@H]2[C@@](C)(O)[C@@H](OC(=O)/C=C/c3ccc(O)cc3)C[C@]12O in this assay.
inactive

Per the assay record, what outcome was assigned to [O-][n+]1cccc(-c2nc3c(Cl)cccc3cc2[C@@H](Nc2ncnc3cccnc23)C(F)(F)F)c1 ?
active

For CCCCCCCCCCCCCC(=O)OC(C)C , which call appears in the assay record?
inactive

Could you kindly confirm the outcome this assay logged for CC(=O)C=C=C1C(C)(C)CC(O)CC1(C)O[C@@H]1O[C@H](CO[C@H]2OC[C@](O)(CO)[C@H]2O)[C@@H](O)[C@H](O)[C@H]1O (some centres not stated) ?
inactive

How was O=c1oc2c(O)c(O)cc3c(=O)oc4c(O)c(O)cc1c4c23 classified in this test?
inactive

Tell me the recorded outcome of this test for CN(C)c1nc2c(Br)c(Br)c(Br)c(Br)c2[nH]1 .
active

Each compound tested received a call. Report the one for COc1ccc(NC(=O)N2CCc3c2ccc2ccccc32)cc1N1CCN(C)CC1 .
active
